pIC50: −log10 of the molar value.
Measured pIC50 on Human PDGFRβ, cytoplasmic domain (GST-PDGFRβ) (Homo sapiens) follows.

Record Smiles	pIC50
C[C@H](Nc1cnc2cn(CC3CCC3)nc2n1)c1cc(NC(=O)c2cnc(C(F)(F)F)s2)ccc1F	> 6.52

// pIC50 lookup, key: CCn1cc2ncc(N[C@@H](C)c3cccc(NC(=O)c4ccc(CN5CC[C@@H](O)C5)c(C)c4)c3)nc2n1
6.00 to 6.52

// pIC50 lookup, key: CCn1cc2ncc(N[C@@H](C)c3cc(NC(=O)c4ccc(F)c(Cl)c4)ccc3C)nc2n1
> 6.52

// pIC50 lookup, key: CCn1cc2ncc(N[C@@H](C)c3cccc(NC(=O)c4cnc(NCCOC)c(C)c4)c3)nc2n1
≤ 6.00

---

Measured IC50 on Human PDGFRβ, cytoplasmic domain (GST-PDGFRβ) (Homo sapiens, UniProt P09619) follows.
Sequence (P09619 with tags, fused parts or gaps): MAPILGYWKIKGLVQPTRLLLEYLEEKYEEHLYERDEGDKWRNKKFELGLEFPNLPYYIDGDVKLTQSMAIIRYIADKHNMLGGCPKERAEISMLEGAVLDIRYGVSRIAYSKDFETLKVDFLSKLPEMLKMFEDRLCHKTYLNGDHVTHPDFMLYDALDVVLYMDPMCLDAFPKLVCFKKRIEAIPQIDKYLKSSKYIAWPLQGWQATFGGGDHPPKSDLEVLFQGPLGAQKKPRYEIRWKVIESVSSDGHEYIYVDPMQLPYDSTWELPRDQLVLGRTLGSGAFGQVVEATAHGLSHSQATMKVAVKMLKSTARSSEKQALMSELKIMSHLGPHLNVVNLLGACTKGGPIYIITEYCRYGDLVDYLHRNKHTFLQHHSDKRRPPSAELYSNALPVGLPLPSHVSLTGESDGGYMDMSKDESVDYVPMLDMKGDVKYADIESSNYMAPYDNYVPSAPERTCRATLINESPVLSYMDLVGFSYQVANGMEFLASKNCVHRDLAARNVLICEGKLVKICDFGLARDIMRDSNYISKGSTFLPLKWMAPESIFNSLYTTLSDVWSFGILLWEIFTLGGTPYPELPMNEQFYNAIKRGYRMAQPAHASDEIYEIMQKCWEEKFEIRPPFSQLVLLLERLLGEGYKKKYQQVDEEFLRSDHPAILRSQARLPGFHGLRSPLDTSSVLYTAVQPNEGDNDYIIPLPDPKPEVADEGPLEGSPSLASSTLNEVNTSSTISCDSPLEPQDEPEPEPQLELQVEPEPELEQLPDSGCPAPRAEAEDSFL

For orientation, consider the following solved cases.
Record Smiles	Assayed Target	Reported Metric	Result
Cc1n[nH]c2ncc(N[C@@H](C)c3cccc(NC(=O)c4cc(C(F)(F)F)nn4C)c3)nc12	Human PDGFRβ, cytoplasmic domain (GST-PDGFRβ) (Homo sapiens, UniProt P09619)	IC50	< 300 nM
Cc1cncc(C(=O)Nc2cccc([C@H](C)Nc3cnc4cnn(C)c4c3)c2)c1	Human PDGFRβ, cytoplasmic domain (GST-PDGFRβ) (Homo sapiens, UniProt P09619)	IC50	300 to 1000 nM

Report IC50 for CCn1cc2ncc(N[C@@H](C)c3cccc(NC(=O)c4ccoc4)c3)nc2n1 tested on Human PDGFRβ, cytoplasmic domain (GST-PDGFRβ) (Homo sapiens, UniProt P09619).
≥ 1000 nM

Report IC50 for C[C@H](Nc1cnc2cnn(C)c2n1)c1cccc(NC(=O)c2cnc3ccsc3c2)c1 tested on Human PDGFRβ, cytoplasmic domain (GST-PDGFRβ) (Homo sapiens, UniProt P09619).
< 300 nM

Report IC50 for CCn1cc2ncc(N[C@@H](C)c3cccc(NC(=O)c4ccc5c(c4)CCNC5)c3)nc2n1 tested on Human PDGFRβ, cytoplasmic domain (GST-PDGFRβ) (Homo sapiens, UniProt P09619).
300 to 1000 nM

Report IC50 for Cc1n[nH]c2ncc(N[C@@H](C)c3cccc(NC(=O)c4cnn(C(F)F)c4)c3)nc12 tested on Human PDGFRβ, cytoplasmic domain (GST-PDGFRβ) (Homo sapiens, UniProt P09619).
< 300 nM

Report IC50 for Cc1cncc(C(=O)Nc2cccc([C@H](C)Nc3cnc4cnn(C5CCOCC5)c4n3)c2)c1 tested on Human PDGFRβ, cytoplasmic domain (GST-PDGFRβ) (Homo sapiens, UniProt P09619).
≥ 1000 nM

Report IC50 for C[C@H](Nc1cnc2cnn(C)c2n1)c1cccc(NC(=O)c2cncc(C3COC3)c2)c1 tested on Human PDGFRβ, cytoplasmic domain (GST-PDGFRβ) (Homo sapiens, UniProt P09619).
< 300 nM

---

# IC50 per record follows
- Assayed Target: Human PDGFRβ, cytoplasmic domain (GST-PDGFRβ) (Homo sapiens, UniProt P09619)

For orientation, consider the following solved cases.
Record Smiles	Result
CCn1cc2ncc(N[C@@H](C)c3cccc(NC(=O)c4ccc(NC)nc4)c3)nc2n1	≥ 1000 nM
Cc1cncc(C(=O)Nc2cccc([C@H](C)Nc3cnc4ccsc4n3)c2)c1	< 300 nM
Cc1cncc(C(=O)Nc2cccc([C@H](C)Nc3cnc4c(c3)OCCN4)c2)c1	≥ 1000 nM
CCn1cc2ncc(N[C@@H](C)c3cccc(NC(=O)c4ccc(CN5CC[C@@H](F)C5)c(Cl)c4)c3)nc2n1	< 300 nM
CCn1cc2ncc(N[C@@H](C)c3cccc(NC(=O)Nc4ccc(N(C)C)nc4)c3)nc2n1	≥ 1000 nM

Report IC50 for CCn1cc2ncc(N[C@@H](C)c3cccc(NC(=O)c4ccc(N5CCN(C)CC5)c(Cl)c4)c3)nc2n1 tested on Human PDGFRβ, cytoplasmic domain (GST-PDGFRβ) (Homo sapiens, UniProt P09619).
300 to 1000 nM

Report IC50 for CCn1cc2ncc(N[C@@H](C)c3cccc(NC(=O)c4cnc(NC)c(C)c4)c3)nc2n1 tested on Human PDGFRβ, cytoplasmic domain (GST-PDGFRβ) (Homo sapiens, UniProt P09619).
300 to 1000 nM

Report IC50 for CCn1cc2ncc(N[C@@H](C)c3cccc(NC(=O)Cc4ccc(C)c(C)n4)c3)nc2n1 tested on Human PDGFRβ, cytoplasmic domain (GST-PDGFRβ) (Homo sapiens, UniProt P09619).
≥ 1000 nM

Report IC50 for COc1ncc(C(=O)Nc2cccc([C@H](C)Nc3cnc4cnn(C)c4n3)c2)cc1C tested on Human PDGFRβ, cytoplasmic domain (GST-PDGFRβ) (Homo sapiens, UniProt P09619).
< 300 nM

Report IC50 for CCn1cc2ncc(N[C@@H](C)c3cc(NC(=O)Cc4ccc(C(C)(C)O)cn4)ccc3F)nc2n1 tested on Human PDGFRβ, cytoplasmic domain (GST-PDGFRβ) (Homo sapiens, UniProt P09619).
≥ 1000 nM

Report IC50 for Cc1cncc(NC(=O)c2cccc([C@H](C)Nc3cnc4cnn(C)c4n3)c2)c1 tested on Human PDGFRβ, cytoplasmic domain (GST-PDGFRβ) (Homo sapiens, UniProt P09619).
≥ 1000 nM

Report IC50 for CC(C)c1cc(C(=O)Nc2cccc([C@H](C)Nc3cnc4[nH]ncc4n3)c2)no1 tested on Human PDGFRβ, cytoplasmic domain (GST-PDGFRβ) (Homo sapiens, UniProt P09619).
< 300 nM

Report IC50 for C[C@H](Nc1cnc2cnn(C)c2n1)c1cccc(NC(=O)c2ccc(Cl)s2)c1 tested on Human PDGFRβ, cytoplasmic domain (GST-PDGFRβ) (Homo sapiens, UniProt P09619).
< 300 nM

Report IC50 for CCn1cc2ncc(N[C@@H](C)c3cccc(NC(=O)Cc4cc(C)cc(F)c4)c3)nc2n1 tested on Human PDGFRβ, cytoplasmic domain (GST-PDGFRβ) (Homo sapiens, UniProt P09619).
< 300 nM

Report IC50 for C[C@H](Nc1cnc2cnn(C)c2n1)c1cccc(NC(=O)N2CCc3ccccc3C2)c1 tested on Human PDGFRβ, cytoplasmic domain (GST-PDGFRβ) (Homo sapiens, UniProt P09619).
< 300 nM

Report IC50 for CCn1cc2ncc(N[C@@H](C)c3cc(NC(=O)c4cnc(C5CC5)c(C)c4)ccc3F)nc2n1 tested on Human PDGFRβ, cytoplasmic domain (GST-PDGFRβ) (Homo sapiens, UniProt P09619).
< 300 nM

---

- Assayed Target: Human PDGFRα, cytoplasmic domain (GST-PDGFRα) (Homo sapiens, UniProt P16234)
- Sequence (P16234 550-1089 T674I): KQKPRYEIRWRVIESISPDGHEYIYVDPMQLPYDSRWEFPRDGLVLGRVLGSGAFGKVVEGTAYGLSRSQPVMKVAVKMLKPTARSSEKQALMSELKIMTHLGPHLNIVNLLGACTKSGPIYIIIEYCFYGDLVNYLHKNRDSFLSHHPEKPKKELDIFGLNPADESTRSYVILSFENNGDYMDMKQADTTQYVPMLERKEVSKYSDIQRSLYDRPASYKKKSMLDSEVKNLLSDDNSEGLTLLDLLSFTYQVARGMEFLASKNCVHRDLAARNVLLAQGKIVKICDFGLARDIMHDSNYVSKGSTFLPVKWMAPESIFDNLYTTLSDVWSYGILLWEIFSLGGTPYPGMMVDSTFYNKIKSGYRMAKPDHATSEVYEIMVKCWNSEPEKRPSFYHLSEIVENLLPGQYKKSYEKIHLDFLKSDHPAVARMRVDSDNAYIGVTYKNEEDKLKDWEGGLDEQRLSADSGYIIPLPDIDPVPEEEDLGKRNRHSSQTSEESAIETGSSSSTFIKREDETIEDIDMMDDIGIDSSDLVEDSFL
- Measurement Protocol: Human PDGFRα biochemical inhibition assay (off-chip Mobility Shift Assay)
pIC50: −log10 of the molar value.
Reported Metric: pIC50

For orientation, consider the following solved cases.
Compound	Assayed Target	pIC50
COc1ccc(Cn2ccc3ncc(N[C@@H](C)c4cccc(NC(=O)c5cncc(C)c5)c4)nc32)cc1OC [Compound 88]	Human PDGFRα, cytoplasmic domain (GST-PDGFRα) (Homo sapiens, UniProt P16234)	> 6.52
CCn1cc2ncc(N[C@@H](C)c3cccc(NC(=O)c4ccc(C)o4)c3)nc2n1 [Compound 369]	Human PDGFRα, cytoplasmic domain (GST-PDGFRα) (Homo sapiens, UniProt P16234)	≤ 6.00
Cc1cncc(C(=O)Nc2cccc([C@H](C)Nc3cnc4[nH]nc(Br)c4n3)c2)c1 [Compound 549]	Human PDGFRα, cytoplasmic domain (GST-PDGFRα) (Homo sapiens, UniProt P16234)	> 6.52

As a next step, examine the compound that follows.
// pIC50 lookup, key: CCn1cc2ncc(N[C@@H](C)c3cccc(NC(=O)c4cnn(C5CC5)c4)c3)nc2n1 [Compound 299]
> 6.52

---

# IC50 per record follows
- Assayed Target: Human PDGFRα, cytoplasmic domain (GST-PDGFRα) (Homo sapiens, UniProt P16234)
- Measurement Protocol: Human PDGFRα biochemical inhibition assay (off-chip Mobility Shift Assay)

For orientation, consider the following solved cases.
Compound	IC50
CCn1cc2ncc(N[C@@H](C)c3cccc(NC(=O)c4cnc(N(C)C)c(C)c4)c3)nc2n1 [Compound 348]	< 300 nM
CCn1cc2ncc(N[C@@H](C)c3cccc(NC(=O)Cc4ccc(C5CC5)cn4)c3)nc2n1 [Compound 682]	300 to 1000 nM
CCn1cc2ncc(N[C@@H](C)c3cccc(NC(=O)c4cnc5[nH]nc(C)c5c4)c3)nc2n1 [Compound 61]	300 to 1000 nM

As a next step, examine the compound that follows.
// IC50 lookup, key: CCn1cc2ncc(N[C@@H](C)c3cc(NC(=O)c4ccc(C(F)(F)F)nc4)ccc3F)nc2n1 [Compound 10]
< 300 nM

---

# pIC50 per record follows
- Assayed Target: Human PDGFRα, cytoplasmic domain (GST-PDGFRα) (Homo sapiens, UniProt P16234)
- Measurement Protocol: Human PDGFRα biochemical inhibition assay (off-chip Mobility Shift Assay)
pIC50: −log10 of the molar value.

For orientation, consider the following solved cases.
Compound	pIC50
Cc1cncc(C(=O)Nc2cccc([C@H](C)Nc3cnc4cnn(C5CCOC5)c4n3)c2)c1 (stereo partly shown) [Compound 182]	> 6.52
CCn1cc2ncc(N[C@@H](C)c3cc(NC(=O)Cc4cccc(C)c4)ccc3F)nc2n1 [Compound 634]	> 6.52
CCn1cc2ncc(N[C@@H](C)c3cccc(NC(=O)Cc4ccccc4F)c3)nc2n1 [Compound 451]	> 6.52

// pIC50 lookup, key: CCn1cc2ncc(N[C@@H](C)c3cccc(NC(=O)Cc4cccc(F)c4)c3)nc2n1 [Compound 625]
> 6.52
